Entry source: ChEMBL document CHEMBL5291721

Assign AC50 to each entry below.
tgt: Thromboxane A2 receptor (Homo sapiens, UniProt P21731)
Sequence (P21731 whole entry): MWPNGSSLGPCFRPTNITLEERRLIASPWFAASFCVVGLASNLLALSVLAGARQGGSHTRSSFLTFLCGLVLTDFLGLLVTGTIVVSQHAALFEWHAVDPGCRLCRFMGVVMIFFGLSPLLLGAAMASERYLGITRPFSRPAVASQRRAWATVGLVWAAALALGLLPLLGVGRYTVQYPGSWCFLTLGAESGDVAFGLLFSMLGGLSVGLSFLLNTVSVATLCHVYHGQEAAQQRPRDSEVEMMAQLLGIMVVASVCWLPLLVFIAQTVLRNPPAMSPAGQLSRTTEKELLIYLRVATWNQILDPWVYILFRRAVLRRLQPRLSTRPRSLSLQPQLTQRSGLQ
Type: functional, cell-based

Problem: # lookup: AC50 of COc1cc(C)c2c(Oc3cccc(C(F)(F)F)c3)c(OC)cc(NC(C)CCCN)c2n1 (stereo unspecified)
Result: > 3 µM

Problem: # lookup: AC50 of `CC(=O)NCCCCCC(=O)O`
Result: > 30 µM

Problem: # lookup: AC50 of Cc1ccc(S(=O)(=O)NC(=O)NC2CCCCC2)cc1 [GLYCYCLAMIDE]
Result: > 30 µM

Problem: # lookup: AC50 of CC(OCCN1CCCCCC1)(c1ccccc1)c1ccc(Cl)cc1 (stereo unspecified)
Result: > 30 µM

Problem: # lookup: AC50 of `O=C(O)Cc1ccccc1Nc1c(Cl)cccc1Cl`
Result: > 3 µM

Problem: # lookup: AC50 of `CN(C)c1ccc(O)c2c1C[C@H]1C[C@H]3[C@H](N(C)C)C(O)=C(C(N)=O)C(=O)[C@@]3(O)C(O)=C1C2=O`
Result: > 30 µM

Problem: # lookup: AC50 of `CC[C@]12CCCN3CCc4c(n(c5ccccc45)[C@@](O)(C(=O)OC)C1)[C@@H]32`
Result: > 30 µM

Problem: # lookup: AC50 of `CC(=O)[C@H]1CC[C@H]2[C@@H]3C=CC4=CC(=O)CC[C@@]4(C)[C@@H]3CC[C@]12C`
Result: > 30 µM

Problem: # lookup: AC50 of `CC(O)(P(=O)(O)O)P(=O)(O)O`
Result: > 30 µM

Problem: # lookup: AC50 of `c1ccc2c(SC3=NCCN3)c[nH]c2c1`
Result: > 30 µM

Problem: # lookup: AC50 of `C=C1CC[C@H](O)C/C1=C/C=C1\CCC[C@]2(C)[C@@H]([C@H](C)CCCC(C)C)CC[C@@H]12`
Result: > 30 µM
